Test Method Notes: A CellTox Green Cytotoxicity Assay to monitor cytotoxicity in HepG2 cells - 32 hour (AID 1224883); also: nearly all actives have a fitted effect of over 50% in size
Assay Context: CellTox Green fluorescence; series mostly up to 76.8 µM
Results filed as inconclusive are left out. Activity calls are given as the source filed them. Calls follow the shape of the dose curve; as a rule, active = well fitted activation curve with a large enough effect in the repeat runs; inconclusive = weak or mixed curves; inactive = flat fitted curve, though single readings scatter.
Reply using exactly one outcome from YES (active), NO (inactive)

[[record]]
molecule = "CCCCc1ncc(/C=C(\\Cc2cccs2)C(=O)O)n1Cc1ccc(C(=O)O)cc1"
answer_label = "NO"

[[record]]
molecule = "O=C1CCC(=O)O1"
answer_label = "NO"

[[record]]
molecule = "Cc1cccc(Nc2ccccc2)c1"
answer_label = "YES"

[[record]]
molecule = "CC(COCCO)OCCO (stereo not given)"
answer_label = "NO"

[[record]]
molecule = "O=C(NCCO[N+](=O)[O-])c1cccnc1"
answer_label = "NO"

[[record]]
molecule = "Brc1c2ccccc2cc2ccccc12"
answer_label = "NO"

[[record]]
molecule = "O=C1OC(CN2CCOCC2)CN1/N=C/c1ccc([N+](=O)[O-])o1 (stereo not given)"
answer_label = "NO"

[[record]]
molecule = "C=CCOC(=O)CCC1CCCCC1"
answer_label = "NO"


Prompt: What did this assay record as the result for CCCCCCCCCOS(=O)(=O)O ?
Response: NO

Prompt: What did this assay record as the result for O=C1OC(=O)C2C3C=CC(C3)C12 (stereo not given) ?
Response: NO

----------
Test Method Notes: Caspase-3/7 induction in CHO-K1 cells by small molecules, qHTS cell viability counter screen (AID 1346979); also: nearly all actives have a fitted effect of over 35% in size
Assay Context: CellTiter-Fluor fluorescence, 17 h; series mostly up to 92.4 µM
Inconclusive results are not listed. Calls of active or inactive are those of the source. Calls come from the whole dose curve; as a rule, active = well fitted cell-killing curve with a large enough effect in the repeat runs; inconclusive = weak or mixed curves, or effect the other way; inactive = no such curve, though single readings can be large or run the other way.
Reply using exactly one outcome from yes (1) = active, no (0) = inactive

Illustrative cases are given below, each with its answer.
[[record]]
compound = "CCOC(=O)Cc1cccc2ccccc12"
answer_label = "no (0)"

[[record]]
compound = "C[C@@H]1C[C@H]2[C@@H]3CCC4=CC(=O)C=C[C@]4(C)[C@@]3(F)[C@@H](O)C[C@]2(C)[C@@]1(O)C(=O)COC(=O)c1ccncc1"
answer_label = "no (0)"

[[record]]
compound = "OCCNCc1ccccc1"
answer_label = "no (0)"

[[record]]
compound = "c1ccc(-c2ccccn2)nc1"
answer_label = "no (0)"

[[record]]
compound = "CCCCC(CC)COC(=O)COc1ccc(Cl)cc1Cl (stereo not drawn)"
answer_label = "no (0)"


Prompt: What did this assay record as the result for CCCCC1=NC2(CCCC2)C(=O)N1Cc1ccc(-c2ccccc2-c2nn[nH]n2)cc1 ?
Response: yes (1)

Prompt: What did this assay record as the result for CCCCOC(=O)CCCCCCCC(=O)OCCCC ?
Response: no (0)

Prompt: What did this assay record as the result for CCCC(=O)Nc1ccc(O)c(C(C)=O)c1 ?
Response: no (0)

Prompt: What did this assay record as the result for CC(C)(CO)[N+](=O)[O-] ?
Response: no (0)

----------
Test Method Notes: qHTS RealTime-Glo MT Cell Viability Assay in HEK293 cells - 24 hour (AID 1224886); also: nearly all actives have a fitted effect of over 50% in size
Assay Context: RealTime-Glo luminescence; series mostly up to 76.8 µM
Results filed as inconclusive are left out. Active and inactive are the calls of the source. Calls come from the whole dose curve; as a rule, active = well fitted cell-killing curve with a large enough effect in the repeat runs; inconclusive = weak or mixed curves, or effect the other way; inactive = flat fitted curve, though single readings scatter.
Reply using exactly one outcome from active, inactive

Illustrative cases are given below, each with its answer.
[[record]]
smiles_notation = "Cc1c(N)cccc1[N+](=O)[O-]"
answer_label = "inactive"

[[record]]
smiles_notation = "CCCCCCCCCOS(=O)(=O)O"
answer_label = "inactive"

[[record]]
smiles_notation = "CC(=O)[O][Al]"
answer_label = "inactive"

[[record]]
smiles_notation = "Nc1ncn([C@H]2C[C@H](O)[C@@H](CO)O2)c(=O)n1"
answer_label = "inactive"


Prompt: What did this assay record as the result for CNCCCCOc1ccccc1Cc1ccccc1 ?
Response: active
